- Assay Overview: RP, Waters ACQUITY UPLC BEH C18, 100 × 2.1 mm, 1.7 µm, 0.3 mL/min, estimated dead time 0.73 min; A: water + 0.1% formic acid, pH 3; B: methanol + 0.1% formic acid, pH 3; gradient (min/%B) 0/10 14/90 16/90 18/10
- Measurement Parameters: stereoisomer not certain
Assay Readout: LC retention time (min)
Give your result in min as a bare value.

Field: example entries. Status: answers known.
[[record]]
molecule = "Cc1cc(C)nc(Nc2ccccc2)n1"
measurement_units = "min"
test_result = 9.86

[[record]]
molecule = "CC(C)(C)N(NC(=O)c1ccc(Cl)cc1)C(=O)c1ccccc1 [Halofenozide]"
measurement_units = "min"
test_result = 9.91

[[record]]
molecule = "CCCCC(C#N)(Cn1cncn1)c1ccc(Cl)cc1 (stereo not drawn)"
measurement_units = "min"
test_result = 10.6

[[record]]
molecule = "CNC(=O)C=C(C)OP(=O)(OC)OC"
measurement_units = "min"
test_result = 3.57

[[record]]
molecule = "O=C(Nc1ccccc1)Nc1cnns1"
measurement_units = "min"
test_result = 7.36


Kindly review the next molecule as well.
Consider "CCN1CCN(c2cc3c(cc2F)c(=O)c(C(=O)O)cn3C2CC2)CC1" . Its measured LC retention time is 4.58

* * *

- Assay Overview: RP, Waters ACQUITY UPLC BEH C18, 100 × 2.1 mm, 1.7 µm, 0.3 mL/min, estimated dead time 0.73 min; A: water + 0.1% formic acid, pH 3; B: methanol + 0.1% formic acid, pH 3; gradient (min/%B) 0/10 14/90 16/90 18/10
- Measurement Parameters: stereoisomer not certain
Assay Readout: LC retention time

Below: 2 compounds and their reported LC retention time.
[[record]]
compound = "CCc1nn(C)c(C(=O)NCc2ccc(C(C)(C)C)cc2)c1Cl [Tebufenpyrad]"
test_result = "13.2 min"

[[record]]
compound = "COP(=O)(OC)OC=C(Cl)Cl [Dichlorvos]"
test_result = "7.31 min"


For reference, reported LC retention time for CCOP(=S)(OCC)ON=C(C#N)c1ccccc1 [Phoxim] stands at 11.9 min

Form field LC retention time, entry O=C(C1CCCCC1)N1CC(=O)N2CCc3ccccc3C2C1 (stereo not drawn) [Praziquantel] : 10.1 min

* * *

- Assay Overview: RP, Waters ACQUITY UPLC BEH C18, 100 × 2.1 mm, 1.7 µm, 0.3 mL/min, estimated dead time 0.73 min; A: water + 0.1% formic acid, pH 3; B: methanol + 0.1% formic acid, pH 3; gradient (min/%B) 0/10 14/90 16/90 18/10
- Measurement Parameters: stereoisomer not certain
LC retention time for assorted compounds
Response body: numeric value in min, unit text excluded.

"CON(C)C(=O)Nc1ccc(Br)c(Cl)c1" yielded LC retention time of 10.1

Recorded result, CC1CC2C3CC(F)C4=CC(=O)C=CC4(C)C3(F)C(O)CC2(C)C1(O)C(=O)CO (stereo not drawn) , LC retention time: 9.72

LC retention time reading for OC(c1ccc(F)cc1)(c1cncnc1)c1ccccc1Cl (stereo not drawn) : 10

* * *

molecules and their reported LC retention time
- Assay Overview: RP, Waters ACQUITY UPLC BEH C18, 100 × 2.1 mm, 1.7 µm, 0.3 mL/min, estimated dead time 0.73 min; A: water + 0.1% formic acid, pH 3; B: methanol + 0.1% formic acid, pH 3; gradient (min/%B) 0/10 14/90 16/90 18/10
- Measurement Parameters: stereoisomer not certain

Examples with their reported LC retention time follow.
[[record]]
molecule = "CC(=O)OCC12CC(OC(=O)CC(C)C)C(C)=CC1OC1C(O)C(OC(C)=O)C2(C)C12CO2 (configuration not stated) [T2 Toxin]"
test_result = "9.98 min"

[[record]]
molecule = "CC1COc2ccccc2N1C(=O)C(Cl)Cl (configuration not stated) [Benoxacor]"
test_result = "9.47 min"

[[record]]
molecule = "COC(=O)NC(=S)Nc1ccccc1NC(=S)NC(=O)OC [Thiophanate-methyl]"
test_result = "7.2 min"


According to the records, this molecule Cc1nnc(NS(=O)(=O)c2ccc(N)cc2)s1 [Sulfamethiazole] displays LC retention time of 3.19 min

LC retention time reported for this molecule CNC(=O)Oc1cc(C)cc(C(C)C)c1 [Promecarb] : 10.3 min

Recorded result, CC(C)c1c(C(=O)Nc2ccccc2)c(-c2ccccc2)c(-c2ccc(F)cc2)n1CCC(O)CC(O)CC(=O)O (configuration not stated) [Atorvastatin] , LC retention time: 12 min

CN(C)CCCN1c2ccccc2Sc2ccc(Cl)cc21 [Chlorpromazine] yielded LC retention time of 10.3 min

* * *

# Lookup of reported LC retention time keyed by entry
- Assay Overview: RP, Waters ACQUITY UPLC BEH C18, 100 × 2.1 mm, 1.7 µm, 0.3 mL/min, estimated dead time 0.73 min; A: water + 0.1% formic acid, pH 3; B: methanol + 0.1% formic acid, pH 3; gradient (min/%B) 0/10 14/90 16/90 18/10
- Measurement Parameters: stereoisomer not certain
Please make sure the unit comes right after the number.

Sure, the documented LC retention time for CCOCCOC(=O)C(C)Oc1ccc(Oc2ncc(C(F)(F)F)cc2Cl)cc1 (centres undefined) is 13.1 min

* * *

Reported values of LC retention time for individual entries
- Assay Overview: RP, Waters ACQUITY UPLC BEH C18, 100 × 2.1 mm, 1.7 µm, 0.3 mL/min, estimated dead time 0.73 min; A: water + 0.1% formic acid, pH 3; B: methanol + 0.1% formic acid, pH 3; gradient (min/%B) 0/10 14/90 16/90 18/10
- Measurement Parameters: stereoisomer not certain
Write the value in min as a bare number.

Previously resolved entries follow.
[[record]]
compound = "CNC(=O)Oc1cccc2c1OC(C)(C)C2O (stereo not given)"
test_result = 4.08

[[record]]
compound = "CCCOCC(=Nc1ccc(Cl)cc1C(F)(F)F)n1ccnc1"
test_result = 12.7

[[record]]
compound = "COCCc1ccc(OCC(O)CNC(C)C)cc1 (stereo not given)"
test_result = 5.31

[[record]]
compound = "CC(=O)OCC12CC(OC(=O)CC(C)C)C(C)=CC1OC1C(O)C(O)C2(C)C12CO2 (stereo not given)"
test_result = 7.95


// next entry
Short answer for "CCCS(=O)(=O)c1ccc2nc(NC(=O)OC)[nH]c2c1" : LC retention time was 6.16

* * *

- Assay Overview: RP, Waters ACQUITY UPLC BEH C18, 100 × 2.1 mm, 1.7 µm, 0.3 mL/min, estimated dead time 0.73 min; A: water + 0.1% formic acid, pH 3; B: methanol + 0.1% formic acid, pH 3; gradient (min/%B) 0/10 14/90 16/90 18/10
- Measurement Parameters: stereoisomer not certain
Assay Readout: LC retention time (min)
Return type: number; implicit unit min.

Please review the following examples before continuing.
[[record]]
compound = "CCCCCCCCC=CC1CCC(=O)O1 (stereo not drawn)"
assay_readout = "LC retention time"
test_result = 9.82

[[record]]
compound = "CC1c2cccc(O)c2C(O)=C2C(=O)C3(O)C(O)=C(C(N)=O)C(=O)C(N(C)C)C3C(O)C21 (stereo not drawn)"
assay_readout = "LC retention time"
test_result = 7.42


# input for lookup
The recorded LC retention time for entry "CCCOC(=O)NCCCN(C)C" equals 2.28
